# viability, T/C per record follows
Test system: 422866-222-R5-J1-PDC spheroid viability
Assay: Anticancer human tumor 422866-222-R5-J1-PDC patient-derived pancreatic adenocarcinoma cell line growth inhibition [CLK]
Settings: second compound 3.16 µM; first compound 10 µM; stronger effect = lower value; spheroids with HUVEC and MSC
Text: A high-throughput screen of multi-cell type tumor spheroids was designed to identify active combinations of […] and targeted small molecules. Complex spheroids include a stromal component modeled by human endothelial cells (HUVEC) and fibroblasts modeled by human mesenchymal stem cells (MSCs). […] Compounds. […] If the clinical Cmax for an agent had not been determined, the highest concentration tested was 10 microM. […]
Supply the numeric figure in %, leaving out any unit text.

Recorded viability, T/C, per entry:
compound | readout-units | viability, T/C
COC1C=CCC(C)C(C)S(=O)(=O)NC(=O)c2ccc3c(c2)N(CC2CCC21)CC1(CCCc2cc(Cl)ccc21)CO3 (stereo not given) + CN1CCN(c2cc(C(=O)Nc3cc4cc(-c5cnn(C)c5)ccc4cn3)ccn2)CC1 | % | 5.17
Nc1ccn(C2OC(CO)C(O)C2(F)F)c(=O)n1 (stereo not given) + CNC(=O)c1ccc(Nc2nc(OC3CCCC3)c3c(-c4ccc5nc(C)oc5c4)c[nH]c3n2)c(OC)c1 | % | 34.1
CCCS(=O)(=O)Nc1ccc(F)c(C(=O)c2c[nH]c3ncc(-c4ccc(Cl)cc4)cc23)c1F + CN1CCN(c2cc(C(=O)Nc3cc4cc(-c5cnn(C)c5)ccc4cn3)ccn2)CC1 | % | 16.1
COc1cccc2c1C(=O)c1c(O)c3c(c(O)c1C2=O)CC(O)(C(=O)CO)CC3OC1CC(N)C(O)C(C)O1 (stereo not given) + CNC(=O)c1ccc(Nc2nc(OC3CCCC3)c3c(-c4ccc5nc(C)oc5c4)c[nH]c3n2)c(OC)c1 | % | 35.9

Kindly review the next compound as well.
Reported viability, T/C ( CC(CO)NC(=O)c1cc(-c2ccc(Cl)cc2)nn(-c2cnn(C)c2)c1=O (stereo not given) + CNC(=O)c1ccc(Nc2nc(OC3CCCC3)c3c(-c4ccc5nc(C)oc5c4)c[nH]c3n2)c(OC)c1 ) = 50.2

====

System: 422866-222-R5-J1-PDC spheroid viability
Assay: Anticancer human tumor 422866-222-R5-J1-PDC cell line growth inhibition [CLK]; active means viability on the fitted dose curve at most 10% of control; inactive means the rest;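 also: spheroids exposed to agents for seven days before readout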
Conditions: second compound 10 µM; first compound 0.316 µM; spheroids with HUVEC and MSC
Can you answer with just one of these options? active, inactive

These recorded examples may help you get a feel for the data.
compound | study-system | group
C#Cc1c(F)ccc2cc(O)cc(-c3ncc4c(N5CC6CCC(C5)N6)nc(OCC56CCCN5CC(F)C6)nc4c3F)c12 (stereo not given) + CN1CCN(c2cc(C(=O)Nc3cc4cc(-c5cnn(C)c5)ccc4cn3)ccn2)CC1 | 422866-222-R5-J1-PDC spheroid viability | active
COC1C=CCC(C)C(C)S(=O)(=O)NC(=O)c2ccc3c(c2)N(CC2CCC21)CC1(CCCc2cc(Cl)ccc21)CO3 (stereo not given) + CNC(=O)c1ccc(Nc2nc(OC3CCCC3)c3c(-c4ccc5nc(C)oc5c4)c[nH]c3n2)c(OC)c1 | 422866-222-R5-J1-PDC spheroid viability | inactive
CC1(C)CCC(CN2CCN(c3ccc(C(=O)NS(=O)(=O)c4ccc(NCC5CCOCC5)c([N+](=O)[O-])c4)c(Oc4cnc5[nH]ccc5c4)c3)CC2)=C(c2ccc(Cl)cc2)C1 + CNC(=O)c1ccc(Nc2nc(OC3CCCC3)c3c(-c4ccc5nc(C)oc5c4)c[nH]c3n2)c(OC)c1 | 422866-222-R5-J1-PDC spheroid viability | inactive

Query :: Just curious, what result did O=c1[nH]cc(F)c(=O)[nH]1 + CN1CCN(c2cc(C(=O)Nc3cc4cc(-c5cnn(C)c5)ccc4cn3)ccn2)CC1 get here?
Result :: active

Query :: Just curious, what result did C=CC(=O)N1CCN(c2nc(=O)n(-c3c(C)ccnc3C(C)C)c3nc(-c4c(O)cccc4F)c(F)cc23)C(C)C1 (stereo not given) + CN1CCN(c2cc(C(=O)Nc3cc4cc(-c5cnn(C)c5)ccc4cn3)ccn2)CC1 get here?
Result :: active

Query :: Just curious, what result did CCCS(=O)(=O)Nc1ccc(F)c(C(=O)c2c[nH]c3ncc(-c4ccc(Cl)cc4)cc23)c1F + CN1CCN(c2cc(C(=O)Nc3cc4cc(-c5cnn(C)c5)ccc4cn3)ccn2)CC1 get here?
Result :: active

Query :: Just curious, what result did CCN1CCN(Cc2ccc(Nc3ncc(F)c(-c4cc(F)c5nc(C)n(C(C)C)c5c4)n3)nc2)CC1 + CN1CCN(c2cc(C(=O)Nc3cc4cc(-c5cnn(C)c5)ccc4cn3)ccn2)CC1 get here?
Result :: active

Query :: Just curious, what result did O=C(c1cc(Cc2n[nH]c(=O)c3ccccc23)ccc1F)N1CCN(C(=O)C2CC2)CC1 + CN1CCN(c2cc(C(=O)Nc3cc4cc(-c5cnn(C)c5)ccc4cn3)ccn2)CC1 get here?
Result :: active

Query :: Just curious, what result did CCc1c2c(nc3ccc(O)cc13)-c1cc3c(c(=O)n1C2)COC(=O)[C@]3(O)CC + CNC(=O)c1ccc(Nc2nc(OC3CCCC3)c3c(-c4ccc5nc(C)oc5c4)c[nH]c3n2)c(OC)c1 get here?
Result :: inactive

Query :: Just curious, what result did C=C(F)C(=O)N1CCN(c2nc(OCC3CCCN3C)nc3c2CCN(c2cccc4cccc(Cl)c24)C3)CC1CC#N (stereo not given) + CNC(=O)c1ccc(Nc2nc(OC3CCCC3)c3c(-c4ccc5nc(C)oc5c4)c[nH]c3n2)c(OC)c1 get here?
Result :: inactive
